tested on: MR^−/− BMDC; test: Glyco-PAINT-APP single-molecule glycan binding on live MR-/- BMDC; set-up: species or system mouse; details: Suppl. Fig 9, glycan SLP, median
sCy5 = sulfo-Cy5
measurementKind: koff−1 (ms)
Provide the reading as a plain figure in ms.

For reference, reported koff−1 for Ac-Lys(Man)-Lys(Man)-Lys(Man)-Lys(Man)-Lys(Man)-Lys(Man)-TEG-Asp-Glu-Val-Ser-Gly-Leu-Glu-Gln-Leu-Glu-Ser-Ile-Ile-Asn-Phe-Glu-Lys-Leu-Ala-Ala-Ala-Ala-Ala-Lys(sCy5)-NH2 ({Ac-K(Man)-K(Man)-K(Man)-K(Man)-K(Man)-K(Man)-TEG}-DEVSGLEQLESIINFEKLAAAAAK(sCy5)-NH2) [6 Mono(3), hexavalent monomannosylated OVA SLP with sulfo-Cy5] stands at 180

* * *

Target: mannose receptor (MR) on CHO-MR cells (Mus musculus)
Construct: expressed in transfected cells; host or cells: CHO (CHO-MR overexpression line, gift of Luisa Martinez-Pomares)
Sequence (Q61830 20-1456): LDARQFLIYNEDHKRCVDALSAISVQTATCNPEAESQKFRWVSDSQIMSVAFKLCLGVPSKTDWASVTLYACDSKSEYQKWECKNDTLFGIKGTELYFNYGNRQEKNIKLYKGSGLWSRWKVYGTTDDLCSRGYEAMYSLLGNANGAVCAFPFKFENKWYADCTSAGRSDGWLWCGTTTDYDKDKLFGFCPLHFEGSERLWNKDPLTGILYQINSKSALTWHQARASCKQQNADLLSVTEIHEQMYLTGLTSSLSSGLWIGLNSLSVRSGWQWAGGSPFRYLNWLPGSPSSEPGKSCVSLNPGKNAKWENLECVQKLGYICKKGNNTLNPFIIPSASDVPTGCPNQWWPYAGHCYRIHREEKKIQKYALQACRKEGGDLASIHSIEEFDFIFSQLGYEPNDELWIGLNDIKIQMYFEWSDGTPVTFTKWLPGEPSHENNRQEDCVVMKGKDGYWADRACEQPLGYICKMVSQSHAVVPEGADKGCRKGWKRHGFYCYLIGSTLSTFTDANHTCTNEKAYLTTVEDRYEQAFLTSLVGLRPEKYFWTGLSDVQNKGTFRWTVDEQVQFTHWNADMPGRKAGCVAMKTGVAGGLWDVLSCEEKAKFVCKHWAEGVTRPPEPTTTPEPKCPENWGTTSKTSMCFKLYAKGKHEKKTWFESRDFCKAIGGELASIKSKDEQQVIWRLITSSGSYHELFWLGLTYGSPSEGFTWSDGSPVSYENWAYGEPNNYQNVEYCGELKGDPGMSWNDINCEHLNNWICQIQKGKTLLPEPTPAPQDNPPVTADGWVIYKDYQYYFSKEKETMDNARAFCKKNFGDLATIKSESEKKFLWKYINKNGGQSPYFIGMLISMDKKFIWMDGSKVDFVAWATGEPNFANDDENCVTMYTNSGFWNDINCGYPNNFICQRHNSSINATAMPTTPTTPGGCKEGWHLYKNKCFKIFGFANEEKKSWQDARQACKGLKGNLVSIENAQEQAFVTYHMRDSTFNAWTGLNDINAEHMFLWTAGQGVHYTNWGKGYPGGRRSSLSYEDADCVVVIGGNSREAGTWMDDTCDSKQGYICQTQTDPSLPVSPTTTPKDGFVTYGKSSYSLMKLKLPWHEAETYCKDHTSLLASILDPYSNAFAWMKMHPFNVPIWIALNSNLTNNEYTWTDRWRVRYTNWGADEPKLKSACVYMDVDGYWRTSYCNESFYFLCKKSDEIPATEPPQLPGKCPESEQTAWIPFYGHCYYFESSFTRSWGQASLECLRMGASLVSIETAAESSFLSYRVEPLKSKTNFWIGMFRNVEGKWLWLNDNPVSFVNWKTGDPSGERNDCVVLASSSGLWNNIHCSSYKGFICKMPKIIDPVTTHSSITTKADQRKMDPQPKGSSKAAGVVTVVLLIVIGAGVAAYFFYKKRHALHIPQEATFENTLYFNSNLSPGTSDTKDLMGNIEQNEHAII
Test: Glyco-PAINT-APP single-molecule glycan binding on CHO-MR cells
Conditions: Suppl. Fig 9, glycan SLP, CHO-MR, median
sCy5 = sulfo-Cy5
kon vs 4 evts μm−2 sec−1: at or above is true, below is false.

{"columns": ["substance", "classLabel"],
 "data": [
  ["Ac-Lys(Man)-Lys(Man)-Lys(Man)-Lys(Man)-Lys(Man)-Lys(Man)-TEG-Asp-Glu-Val-Ser-Gly-Leu-Glu-Gln-Leu-Glu-Ser-Ile-Ile-Asn-Phe-Glu-Lys-Leu-Ala-Ala-Ala-Ala-Ala-Lys(sCy5)-NH2 ({Ac-K(Man)-K(Man)-K(Man)-K(Man)-K(Man)-K(Man)-TEG}-DEVSGLEQLESIINFEKLAAAAAK(sCy5)-NH2) [6 Mono(3), hexavalent monomannosylated OVA SLP with sulfo-Cy5]", "true"]
]}

Data request: Confirm if kon reported for the substance Ac-Lys(triMan)-TEG-Asp-Glu-Val-Ser-Gly-Leu-Glu-Gln-Leu-Glu-Ser-Ile-Ile-Asn-Phe-Glu-Lys-Leu-Ala-Ala-Ala-Ala-Ala-Lys(sCy5)-NH2 (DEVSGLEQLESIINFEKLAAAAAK; Ac-Lys(triMan)-TEG, sulfo-Cy5, C-amide; printed: Asp-Glu-Val-Ser-Gly-Leu-Glu-Gln-Leu-Glu-Ser-Ile-Ile-Asn-Phe-Glu-Lys-Leu-Ala-Ala-Ala-Ala-Ala-Lys) [1 Tri(4), monovalent trimannosylated OVA SLP with sulfo-Cy5] is 4 evts μm−2 sec−1 or above.
Data returned: false

Data request: Exam item: decide whether the reported kon for Ac-Lys(triMan)-Gly-Lys(triMan)-TEG-Asp-Glu-Val-Ser-Gly-Leu-Glu-Gln-Leu-Glu-Ser-Ile-Ile-Asn-Phe-Glu-Lys-Leu-Ala-Ala-Ala-Ala-Ala-Lys(sCy5)-NH2 (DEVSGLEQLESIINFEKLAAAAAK; two Lys(triMan), TEG, sulfo-Cy5, C-amide; printed: Asp-Glu-Val-Ser-Gly-Leu-Glu-Gln-Leu-Glu-Ser-Ile-Ile-Asn-Phe-Glu-Lys-Leu-Ala-Ala-Ala-Ala-Ala-Lys) [2 Tri(5), bivalent trimannosylated OVA SLP with sulfo-Cy5] is at least 4 evts μm−2 sec−1.
Data returned: true

Data request: Decide: is the reported value of kon for Ac-Lys(Man)-Gly-Lys(Man)-TEG-Asp-Glu-Val-Ser-Gly-Leu-Glu-Gln-Leu-Glu-Ser-Ile-Ile-Asn-Phe-Glu-Lys-Leu-Ala-Ala-Ala-Ala-Ala-Lys(sCy5)-NH2 ({Ac-K(Man)-Gly-K(Man)-TEG}-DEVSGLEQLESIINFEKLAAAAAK(sCy5)-NH2) [2 Mono(2), bivalent monomannosylated OVA SLP with sulfo-Cy5] equal to or greater than 4 evts μm−2 sec−1?
Data returned: true

Data request: API: above_or_equal(metric=kon, cutoff=4 evts μm−2 sec−1) for item Ac-Lys(Man)-TEG-Asp-Glu-Val-Ser-Gly-Leu-Glu-Gln-Leu-Glu-Ser-Ile-Ile-Asn-Phe-Glu-Lys-Leu-Ala-Ala-Ala-Ala-Ala-Lys(sCy5)-NH2 ({Ac-K(Man)-TEG}-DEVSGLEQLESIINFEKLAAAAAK(sCy5)-NH2) [1 Mono(1), monovalent monomannosylated OVA SLP with sulfo-Cy5]
Data returned: false

* * *

tested on: bone-marrow derived mouse dendritic cells (BMDCs); experiment: Glyco-PAINT-APP single-molecule glycan binding on live WT BMDC; settings: Suppl. Fig 9, glycan SLP, BMDC, median
sCy5 = sulfo-Cy5
measurementKind: kon (evts μm−2 sec−1)
Your answer should be a plain number; it is taken to be in evts μm−2 sec−1.

Quick note, kon for Ac-Lys(Man)-TEG-Asp-Glu-Val-Ser-Gly-Leu-Glu-Gln-Leu-Glu-Ser-Ile-Ile-Asn-Phe-Glu-Lys-Leu-Ala-Ala-Ala-Ala-Ala-Lys(sCy5)-NH2 ({Ac-K(Man)-TEG}-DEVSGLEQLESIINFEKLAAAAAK(sCy5)-NH2) [1 Mono(1), monovalent monomannosylated OVA SLP with sulfo-Cy5] landed at 0.9

* * *

Molecular target: mannose receptor (MR) on CHO-MR cells (Mus musculus)
Construct: expressed in transfected cells; host or cells: CHO (CHO-MR overexpression line, gift of Luisa Martinez-Pomares)
Sequence (Q61830 20-1456): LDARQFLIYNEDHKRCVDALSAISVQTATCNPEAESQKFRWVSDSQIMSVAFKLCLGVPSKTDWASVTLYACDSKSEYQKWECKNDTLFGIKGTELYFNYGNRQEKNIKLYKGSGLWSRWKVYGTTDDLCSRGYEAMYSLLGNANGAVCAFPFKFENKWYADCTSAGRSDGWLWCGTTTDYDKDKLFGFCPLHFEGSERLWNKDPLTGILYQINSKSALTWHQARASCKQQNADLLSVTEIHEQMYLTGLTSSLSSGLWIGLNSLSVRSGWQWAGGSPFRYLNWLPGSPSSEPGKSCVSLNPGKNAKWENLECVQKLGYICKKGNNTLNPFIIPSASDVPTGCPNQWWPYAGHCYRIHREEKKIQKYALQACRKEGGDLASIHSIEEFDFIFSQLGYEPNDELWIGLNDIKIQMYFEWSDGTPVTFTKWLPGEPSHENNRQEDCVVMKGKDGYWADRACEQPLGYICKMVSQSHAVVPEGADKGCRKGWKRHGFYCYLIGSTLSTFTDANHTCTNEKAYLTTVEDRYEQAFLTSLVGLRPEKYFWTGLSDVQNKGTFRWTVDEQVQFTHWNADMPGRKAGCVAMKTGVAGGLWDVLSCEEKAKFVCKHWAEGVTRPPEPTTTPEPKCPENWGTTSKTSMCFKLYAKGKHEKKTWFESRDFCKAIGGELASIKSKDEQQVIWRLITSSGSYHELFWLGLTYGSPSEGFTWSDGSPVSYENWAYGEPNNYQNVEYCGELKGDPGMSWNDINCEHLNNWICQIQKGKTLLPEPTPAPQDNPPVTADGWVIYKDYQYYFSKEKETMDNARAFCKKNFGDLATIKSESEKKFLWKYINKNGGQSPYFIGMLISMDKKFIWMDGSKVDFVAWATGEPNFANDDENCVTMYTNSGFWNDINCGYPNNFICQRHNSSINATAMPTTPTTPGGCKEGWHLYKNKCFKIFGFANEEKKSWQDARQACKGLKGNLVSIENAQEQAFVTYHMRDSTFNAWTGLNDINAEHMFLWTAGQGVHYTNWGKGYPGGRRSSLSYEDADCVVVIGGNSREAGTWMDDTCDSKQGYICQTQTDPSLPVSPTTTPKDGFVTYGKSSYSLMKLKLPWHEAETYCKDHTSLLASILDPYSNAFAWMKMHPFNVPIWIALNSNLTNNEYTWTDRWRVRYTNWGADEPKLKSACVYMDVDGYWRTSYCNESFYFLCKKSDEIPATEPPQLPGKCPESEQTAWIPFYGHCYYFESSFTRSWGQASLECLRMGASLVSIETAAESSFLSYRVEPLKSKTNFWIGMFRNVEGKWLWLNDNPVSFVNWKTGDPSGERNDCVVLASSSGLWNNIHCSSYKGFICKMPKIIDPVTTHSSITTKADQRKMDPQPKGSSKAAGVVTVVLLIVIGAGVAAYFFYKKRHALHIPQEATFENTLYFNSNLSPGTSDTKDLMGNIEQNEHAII
Test: Glyco-PAINT-APP single-molecule glycan binding on CHO-MR cells
Settings: Suppl. Fig 9, glycan SLP, CHO-MR, median
sCy5 = sulfo-Cy5
measurementKind: koff−1 (ms)
Give a bare numeral; the unit ms is implied.

Record excerpt, results attached:
{"columns": ["substance", "systemTested", "koff−1, ms"],
 "data": [
  ["Ac-Lys(Man)-Lys(Man)-Lys(Man)-Lys(Man)-Lys(Man)-Lys(Man)-TEG-Asp-Glu-Val-Ser-Gly-Leu-Glu-Gln-Leu-Glu-Ser-Ile-Ile-Asn-Phe-Glu-Lys-Leu-Ala-Ala-Ala-Ala-Ala-Lys(sCy5)-NH2 ({Ac-K(Man)-K(Man)-K(Man)-K(Man)-K(Man)-K(Man)-TEG}-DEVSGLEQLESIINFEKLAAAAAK(sCy5)-NH2) [6 Mono(3), hexavalent monomannosylated OVA SLP with sulfo-Cy5]", "mannose receptor (MR) on CHO-MR cells (Mus musculus)", 117],
  ["Ac-Lys(Man)-Gly-Lys(Man)-TEG-Asp-Glu-Val-Ser-Gly-Leu-Glu-Gln-Leu-Glu-Ser-Ile-Ile-Asn-Phe-Glu-Lys-Leu-Ala-Ala-Ala-Ala-Ala-Lys(sCy5)-NH2 ({Ac-K(Man)-Gly-K(Man)-TEG}-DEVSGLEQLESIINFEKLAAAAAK(sCy5)-NH2) [2 Mono(2), bivalent monomannosylated OVA SLP with sulfo-Cy5]", "mannose receptor (MR) on CHO-MR cells (Mus musculus)", 91],
  ["Ac-Lys(triMan)-Gly-Lys(triMan)-TEG-Asp-Glu-Val-Ser-Gly-Leu-Glu-Gln-Leu-Glu-Ser-Ile-Ile-Asn-Phe-Glu-Lys-Leu-Ala-Ala-Ala-Ala-Ala-Lys(sCy5)-NH2 (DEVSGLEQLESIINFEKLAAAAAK; two Lys(triMan), TEG, sulfo-Cy5, C-amide; printed: Asp-Glu-Val-Ser-Gly-Leu-Glu-Gln-Leu-Glu-Ser-Ile-Ile-Asn-Phe-Glu-Lys-Leu-Ala-Ala-Ala-Ala-Ala-Lys) [2 Tri(5), bivalent trimannosylated OVA SLP with sulfo-Cy5]", "mannose receptor (MR) on CHO-MR cells (Mus musculus)", 117]
]}

Continue with the substance presented below.
# substance Ac-Lys(Man)-TEG-Asp-Glu-Val-Ser-Gly-Leu-Glu-Gln-Leu-Glu-Ser-Ile-Ile-Asn-Phe-Glu-Lys-Leu-Ala-Ala-Ala-Ala-Ala-Lys(sCy5)-NH2 ({Ac-K(Man)-TEG}-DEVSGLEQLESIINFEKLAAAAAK(sCy5)-NH2) [1 Mono(1), monovalent monomannosylated OVA SLP with sulfo-Cy5] ; its koff−1 = 68
